# Study system: Alpha-2C adrenergic receptor (Homo sapiens)
# Method notes: modulators of alpha2C/GIRK thallium flux, primary screen, cell-based, HEK293 alpha2C/GIRK1/2 (AID 624);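 note: slope of fluorescence ratio to pre-addition baseline per second over 15 to 24 s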
# Test conditions: thallium flux BTC fluorescence, at 10 µM, actives lie on both sides
Assay readout: slope
Could you respond with only the numeric value?

## Input Fill: slope (Alpha-2C adrenergic receptor (Homo sapiens)) for this compound COCCCN(Cc1ccccn1)S(=O)(=O)Cc1ccccc1
## Output 0.00578

## Input Fill: slope (Alpha-2C adrenergic receptor (Homo sapiens)) for this compound Cc1ccc2c(C)nc(NC3=NCN(C(C)C)CN3)nc2c1
## Output 0.0049

## Input Fill: slope (Alpha-2C adrenergic receptor (Homo sapiens)) for this compound CCOC(=O)c1[nH]c(C)c(C(=O)NC)c1C
## Output 0.00529

## Input Fill: slope (Alpha-2C adrenergic receptor (Homo sapiens)) for this compound Cc1c(C(=O)OCc2ccccc2)[nH]c2c1C(=O)CC(c1ccco1)C2 (stereo not given)
## Output 0.00645

## Input Fill: slope (Alpha-2C adrenergic receptor (Homo sapiens)) for this compound O=C1CC(Cc2ccccc2)C(=O)N1CCCn1ccnc1 (stereo not given)
## Output 0.00527

New cases:
## Input Fill: slope (Alpha-2C adrenergic receptor (Homo sapiens)) for this compound COc1cccc(CNC(=O)C2CCN(C(=O)N(C)C)CC2)c1
## Output 0.00563

## Input Fill: slope (Alpha-2C adrenergic receptor (Homo sapiens)) for this compound O=C1CCCN1CCCNc1ncnc2c1[nH]c1ccc(Cl)cc12
## Output 0.00715

## Input Fill: slope (Alpha-2C adrenergic receptor (Homo sapiens)) for this compound CCOc1ccc(NC(=O)CN2C(=O)C3CCCN3C2=O)cc1 (stereo not given)
## Output 0.00647

## Input Fill: slope (Alpha-2C adrenergic receptor (Homo sapiens)) for this compound CCOC(=O)N1CCN(C(c2ccc(Cl)cc2)c2sc3nc(C)nn3c2O)CC1 (stereo not given)
## Output 0.00503

## Input Fill: slope (Alpha-2C adrenergic receptor (Homo sapiens)) for this compound CCCOC(=O)CSc1nc(N)c(C#N)c(CC)c1C#N
## Output 0.00456
